For each record, write down the corresponding Freeze thaw cycles stability, Accuracy.
test: Stability of analytes in rat plasma QC samples (autosampler, room temperature, freeze/thaw, -80°C); format: in vitro ADME; settings: three freeze (-80°C)/thaw cycles, n = 6, medium level (120 ng/mL isovanillin, periplocin; 24 ng/mL others)
Use % as the unit, but write only the number.

The recorded Freeze thaw cycles stability, Accuracy for `C[C@]12CC[C@H](O)C[C@@]1(O)CC[C@@H]1[C@@H]2CC[C@]2(C)[C@@H](C3=CC(=O)OC3)CC[C@]12O` is 112

The recorded Freeze thaw cycles stability, Accuracy for COC1CC(OC2CCC3(C)C4CCC5(C)C(C6=CC(=O)OC6)CCC5(O)C4CCC3(O)C2)OC(C)C1OC1OC(CO)C(O)C(O)C1O (stereo not shown) is 114

The recorded Freeze thaw cycles stability, Accuracy for `CO[C@H]1C[C@H](O[C@H]2CC[C@]3(C)[C@H]4CC[C@]5(C)[C@@H](C6=CC(=O)OC6)CC[C@]5(O)[C@@H]4CC[C@]3(O)C2)O[C@H](C)[C@H]1O` is 113

The recorded Freeze thaw cycles stability, Accuracy for `COc1ccc(C=O)cc1O` is 98.6

###

For each record, write down the corresponding Autosampler for 24 hours stability, Accuracy.
test: Stability of analytes in rat plasma QC samples (autosampler, room temperature, freeze/thaw, -80°C); assay type: in vitro ADME; conditions: n = 6, high level (1200 ng/mL isovanillin, periplocin; 240 ng/mL others)
Use % as the unit, but write only the number.

The recorded Autosampler for 24 hours stability, Accuracy for `CO[C@H]1C[C@H](O[C@H]2CC[C@]3(C)[C@H]4CC[C@]5(C)[C@@H](C6=CC(=O)OC6)CC[C@]5(O)[C@@H]4CC[C@]3(O)C2)O[C@H](C)[C@H]1O` is 102

The recorded Autosampler for 24 hours stability, Accuracy for `COc1ccc(C=O)cc1O` is 114

The recorded Autosampler for 24 hours stability, Accuracy for COC1CC(OC2CCC3(C)C4CCC5(C)C(C6=CC(=O)OC6)CCC5(O)C4CCC3(O)C2)OC(C)C1OC1OC(CO)C(O)C(O)C1O (stereo not shown) is 113

The recorded Autosampler for 24 hours stability, Accuracy for `C[C@]12CC[C@H](O)C[C@@]1(O)CC[C@@H]1[C@@H]2CC[C@]2(C)[C@@H](C3=CC(=O)OC3)CC[C@]12O` is 104

###

For each record, write down the corresponding -80°C for 1 month stability, Accuracy.
assay: Stability of analytes in rat plasma QC samples (autosampler, room temperature, freeze/thaw, -80°C); type: in vitro ADME; settings: n = 6, medium level (120 ng/mL isovanillin, periplocin; 24 ng/mL others)
Use % as the unit, but write only the number.

The recorded -80°C for 1 month stability, Accuracy for `CO[C@H]1C[C@H](O[C@H]2CC[C@]3(C)[C@H]4CC[C@]5(C)[C@@H](C6=CC(=O)OC6)CC[C@]5(O)[C@@H]4CC[C@]3(O)C2)O[C@H](C)[C@H]1O` is 102

The recorded -80°C for 1 month stability, Accuracy for `C[C@]12CC[C@H](O)C[C@@]1(O)CC[C@@H]1[C@@H]2CC[C@]2(C)[C@@H](C3=CC(=O)OC3)CC[C@]12O` is 108

The recorded -80°C for 1 month stability, Accuracy for `COc1ccc(C=O)cc1O` is 100

The recorded -80°C for 1 month stability, Accuracy for COC1CC(OC2CCC3(C)C4CCC5(C)C(C6=CC(=O)OC6)CCC5(O)C4CCC3(O)C2)OC(C)C1OC1OC(CO)C(O)C(O)C1O (stereo not shown) is 115

###

assay: Stability of analytes in rat plasma QC samples (autosampler, room temperature, freeze/thaw, -80°C); format: in vitro ADME; conditions: n = 6, low level (7.2 ng/mL isovanillin, periplocin; 1.44 ng/mL others)
measurementName: Room temperature for 24 h stability, Accuracy (%)
Use % as the unit, but write only the number.

The recorded Room temperature for 24 h stability, Accuracy for `COc1ccc(C=O)cc1O` is 107

The recorded Room temperature for 24 h stability, Accuracy for `C[C@]12CC[C@H](O)C[C@@]1(O)CC[C@@H]1[C@@H]2CC[C@]2(C)[C@@H](C3=CC(=O)OC3)CC[C@]12O` is 92.6

The recorded Room temperature for 24 h stability, Accuracy for COC1CC(OC2CCC3(C)C4CCC5(C)C(C6=CC(=O)OC6)CCC5(O)C4CCC3(O)C2)OC(C)C1OC1OC(CO)C(O)C(O)C1O (stereo not shown) is 111

The recorded Room temperature for 24 h stability, Accuracy for `CO[C@H]1C[C@H](O[C@H]2CC[C@]3(C)[C@H]4CC[C@]5(C)[C@@H](C6=CC(=O)OC6)CC[C@]5(O)[C@@H]4CC[C@]3(O)C2)O[C@H](C)[C@H]1O` is 107

###

For each record, write down the corresponding Autosampler for 24 hours stability, Accuracy.
assay: Stability of analytes in rat plasma QC samples (autosampler, room temperature, freeze/thaw, -80°C); assay type: in vitro ADME; conditions: n = 6, low level (7.2 ng/mL isovanillin, periplocin; 1.44 ng/mL others)
Use % as the unit, but write only the number.

The recorded Autosampler for 24 hours stability, Accuracy for COc1ccc(C=O)cc1O [isovanillin] is 100

The recorded Autosampler for 24 hours stability, Accuracy for CO[C@H]1C[C@H](O[C@H]2CC[C@]3(C)[C@H]4CC[C@]5(C)[C@@H](C6=CC(=O)OC6)CC[C@]5(O)[C@@H]4CC[C@]3(O)C2)O[C@H](C)[C@H]1O [periplocymarin] is 101

The recorded Autosampler for 24 hours stability, Accuracy for C[C@]12CC[C@H](O)C[C@@]1(O)CC[C@@H]1[C@@H]2CC[C@]2(C)[C@@H](C3=CC(=O)OC3)CC[C@]12O [periplogenin] is 108

The recorded Autosampler for 24 hours stability, Accuracy for COC1CC(OC2CCC3(C)C4CCC5(C)C(C6=CC(=O)OC6)CCC5(O)C4CCC3(O)C2)OC(C)C1OC1OC(CO)C(O)C(O)C1O (stereo not shown) [periplocin] is 113

###

assay: Stability of analytes in rat plasma QC samples (autosampler, room temperature, freeze/thaw, -80°C); assay type: in vitro ADME; details: n = 6, medium level (120 ng/mL isovanillin, periplocin; 24 ng/mL others)
measurementName: Room temperature for 24 h stability, Accuracy (%)
Use % as the unit, but write only the number.

The recorded Room temperature for 24 h stability, Accuracy for COC1CC(OC2CCC3(C)C4CCC5(C)C(C6=CC(=O)OC6)CCC5(O)C4CCC3(O)C2)OC(C)C1OC1OC(CO)C(O)C(O)C1O (stereo not shown) is 116

The recorded Room temperature for 24 h stability, Accuracy for `CO[C@H]1C[C@H](O[C@H]2CC[C@]3(C)[C@H]4CC[C@]5(C)[C@@H](C6=CC(=O)OC6)CC[C@]5(O)[C@@H]4CC[C@]3(O)C2)O[C@H](C)[C@H]1O` is 102

The recorded Room temperature for 24 h stability, Accuracy for `COc1ccc(C=O)cc1O` is 106

The recorded Room temperature for 24 h stability, Accuracy for `C[C@]12CC[C@H](O)C[C@@]1(O)CC[C@@H]1[C@@H]2CC[C@]2(C)[C@@H](C3=CC(=O)OC3)CC[C@]12O` is 115

###

Test: Stability of analytes in rat plasma QC samples (autosampler, room temperature, freeze/thaw, -80°C)
Assay type: in vitro ADME
Conditions: n = 6, high level (1200 ng/mL isovanillin, periplocin; 240 ng/mL others)
Experimental: The QC samples (n = 6) at three concentrations (low, medium, and high) were also used to assess the stabilities of all analytes. The QC samples under autosampler condition for 24 h were determined to evaluate the autosampler 24 h stability. […] The stability of analytes working solution was also assessed by storing solutions 2 weeks at 4°C. The stabilities of stock and working solutions of ISs were determined by the same procedure as that for the analytes.
measurementName: Room temperature for 24 h stability, Accuracy
Provide the measurement as a number trailed by its unit.

The recorded Room temperature for 24 h stability, Accuracy for `COc1cc2ccc(=O)oc2cc1O` is 103%

The recorded Room temperature for 24 h stability, Accuracy for `COc1ccc(C=O)cc1O` is 103%

The recorded Room temperature for 24 h stability, Accuracy for `CO[C@H]1C[C@H](O[C@H]2CC[C@]3(C)[C@H]4CC[C@]5(C)[C@@H](C6=CC(=O)OC6)CC[C@]5(O)[C@@H]4CC[C@]3(O)C2)O[C@H](C)[C@H]1O` is 98.5%

The recorded Room temperature for 24 h stability, Accuracy for COC1CC(OC2CCC3(C)C4CCC5(C)C(C6=CC(=O)OC6)CCC5(O)C4CCC3(O)C2)OC(C)C1OC1OC(CO)C(O)C(O)C1O (centres unmarked) is 96.4%

The recorded Room temperature for 24 h stability, Accuracy for `C[C@]12CC[C@H](O)C[C@@]1(O)CC[C@@H]1[C@@H]2CC[C@]2(C)[C@@H](C3=CC(=O)OC3)CC[C@]12O` is 101%
